I'd be grateful if you could share measured melting point for these entries.
Counter-ions that a name gives are not always drawn.

{"compound": "CC(=O)Nc1cccc(C2=CC3CCC(C2)N3C)c1.O=C(O)/C=C/C(=O)O (racemic)", "melting point": "195.3 to 196.9 °C"}

Return reported melting point values for all items listed beneath this line.
1. CN1C2C=C(c3ccc(Cl)nc3)CC1CC2 (racemic) (as salt: fumaric acid salt)
2. CN1C2C=C(c3csc4ccccc34)CC1CC2.O=C(O)/C=C/C(=O)O (racemic)
3. CN1C2C=C(c3ccsc3)CC1CC2.Cl (racemic)
4. CN1C2C=C(c3cc4ccccc4s3)CC1CC2 (racemic)
5. CN1C2C=C(c3cc4ccccc4s3)CC1CC2.Cl (racemic)
6. C1=C(c2cccnc2)CC2CCC1N2Cc1ccccc1.O=C(O)/C=C/C(=O)O (racemic)
7. CN1C2C=C(c3ccc[se]3)CC1CC2 (racemic)
8. CN1C2C=C(c3cccs3)CC1CC2.O=C(O)/C=C/C(=O)O (racemic)

Data returned:
["140 to 142 °C", "146.6 to 149.5 °C", "117 to 118.5 °C", "81 to 83.6 °C", "> 250 °C", "142 to 146 °C", "176.8 to 178.3 °C", "141.5 to 143.5 °C"]

Return reported melting point values for all items listed beneath this line.
1. CC(=O)C1=CC2CCC(C1)N2C.O=C(O)/C=C/C(=O)O (racemic)
2. CN1C2C=C(c3sccc3-c3ccoc3)CC1CC2.O=C(O)/C=C/C(=O)O (racemic)

Data returned:
1. 148.5 to 150 °C
2. 187 to 189 °C
